Target: DNA gyrase subunit A/DNA gyrase subunit B (Mycobacterium tuberculosis (strain ATCC 25618 / H37Rv), UniProt P9WG45+P9WG47)
Sequence (P9WG45 whole entry): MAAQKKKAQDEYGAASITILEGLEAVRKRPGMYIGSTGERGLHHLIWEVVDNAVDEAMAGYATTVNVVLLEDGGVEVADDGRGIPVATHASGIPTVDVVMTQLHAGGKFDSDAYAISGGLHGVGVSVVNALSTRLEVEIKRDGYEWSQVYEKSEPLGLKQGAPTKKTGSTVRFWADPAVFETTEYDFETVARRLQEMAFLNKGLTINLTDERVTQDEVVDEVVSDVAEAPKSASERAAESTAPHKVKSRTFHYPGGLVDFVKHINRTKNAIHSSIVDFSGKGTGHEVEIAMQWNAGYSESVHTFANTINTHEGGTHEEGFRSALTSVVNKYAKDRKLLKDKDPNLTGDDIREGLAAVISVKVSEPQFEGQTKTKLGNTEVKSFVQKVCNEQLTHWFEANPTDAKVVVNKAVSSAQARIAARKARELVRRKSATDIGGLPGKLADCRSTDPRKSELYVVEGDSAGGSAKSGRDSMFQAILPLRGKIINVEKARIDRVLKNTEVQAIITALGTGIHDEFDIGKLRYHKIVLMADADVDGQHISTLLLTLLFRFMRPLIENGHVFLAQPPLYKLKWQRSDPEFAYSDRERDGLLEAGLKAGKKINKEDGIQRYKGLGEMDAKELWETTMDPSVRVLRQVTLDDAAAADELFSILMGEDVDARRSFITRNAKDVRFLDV
Sequence (P9WG47 whole entry): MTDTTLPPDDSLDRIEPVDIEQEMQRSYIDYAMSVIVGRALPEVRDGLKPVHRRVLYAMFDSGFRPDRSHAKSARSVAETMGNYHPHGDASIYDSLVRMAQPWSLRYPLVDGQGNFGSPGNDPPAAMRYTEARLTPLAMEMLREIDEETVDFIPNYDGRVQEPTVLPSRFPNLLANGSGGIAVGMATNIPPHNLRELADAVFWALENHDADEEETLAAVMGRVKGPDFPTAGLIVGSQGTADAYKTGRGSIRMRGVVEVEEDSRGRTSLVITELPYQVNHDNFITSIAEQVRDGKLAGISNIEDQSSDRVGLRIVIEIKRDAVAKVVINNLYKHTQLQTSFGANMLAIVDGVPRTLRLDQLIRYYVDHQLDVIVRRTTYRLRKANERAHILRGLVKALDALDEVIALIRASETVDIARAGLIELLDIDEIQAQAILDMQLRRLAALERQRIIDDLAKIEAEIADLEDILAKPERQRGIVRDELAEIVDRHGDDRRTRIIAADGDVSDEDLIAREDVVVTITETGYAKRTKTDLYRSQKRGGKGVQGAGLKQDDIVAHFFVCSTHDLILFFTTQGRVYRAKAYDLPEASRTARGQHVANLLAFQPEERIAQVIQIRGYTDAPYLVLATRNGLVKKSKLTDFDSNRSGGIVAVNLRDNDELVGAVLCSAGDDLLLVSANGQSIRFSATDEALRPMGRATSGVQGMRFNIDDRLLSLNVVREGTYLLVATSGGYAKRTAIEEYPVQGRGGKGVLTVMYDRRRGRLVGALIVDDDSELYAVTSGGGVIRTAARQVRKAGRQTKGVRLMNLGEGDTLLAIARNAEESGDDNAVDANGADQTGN
Test: Inhibition of Mycobacterium tuberculosis DNA gyrase assessed as inhibition of DNA supercoiling activity using relaxed pBR322 as substrate incubated for 30 mins by ethidium bromide staining based agarose gel electrophoresis
endpoint_label: IC50 (µM)
Numbers only here, please. The scale is µM.

1. O=C1C(=O)N(CCN2CCN(NCc3ccc([N+](=O)[O-])o3)CC2)c2ccc(Cl)cc21 ... 23.9
2. O=c1nc(N2CCN(C(=S)Nc3ccc(Cl)cc3)CC2)sc2ccc(Cl)cc12 ... 6.86

Quick one: IC50 of `O=C(Nc1ccccc1)N1CCN(c2nc(=O)c3cc(Cl)ccc3s2)CC1` ?
17.5

# get_value(readout='IC50', item= `Cc1ccc(NC(=O)N2CCN(c3nc(=O)c4cc([N+](=O)[O-])ccc4s3)CC2)cc1` )
9.62

Hello, the source for this data is ChEMBL document CHEMBL3875146, in case you need it.
